System: SR leukemia
Experiment: NCI tumour cell line growth inhibition, 48 h
property-measured: TGI

Take a look at these entries with their results.
CC(C)(C)NCC(O)COc1c(Br)c(Br)c(Br)c2c1OC(C)(C)C2 (stereo unspecified) = 3.29 µM
Clc1ccc2c(NCCCCN3OC3c3ccccc3)ccnc2c1 (stereo unspecified) = > 100 µM
Nc1ccccc1C#CC(=O)c1cccc(C(F)(F)F)c1 = > 100 µM
CC(C)=NOC(=O)CNC(=O)C(Cc1ccccc1)NC(=O)C(C)NC(=O)OC(C)(C)C (stereo unspecified) = > 100 µM
COc1ccc(/C=C(\NC(=O)c2ccccc2)c2nc3ccccc3[nH]2)cc1OC = > 100 µM
O=C(Cn1cc(Br)c(=O)[nH]c1=O)c1ccc(-c2ccccc2)cc1 = > 100 µM

In: Name the value of TGI reported for NC(=O)CSc1c2cc(O)ccc2nc2ccc(O)cc12 when tested on SR leukemia.
Out: > 10 µM

In: Please respond with reported TGI (system SR leukemia) for O=C1CCCC/C1=C\c1ccc([N+](=O)[O-])cc1 .
Out: > 100 µM

In: Find the measured TGI of CC(C)(C)[Si](C)(C)OC1[C@@H](CNC(N)=O)O[C@@H](n2cnc3c(NC(=O)Nc4ccccc4)ncnc32)[C@H]1O[Si](C)(C)C(C)(C)C (stereo partly specified) with SR leukemia as test system.
Out: 1.99 µM

In: Under SR leukemia, report TGI for Cn1c(=O)n(C)c2cc(CNCCNc3ccnc4cc(Cl)ccc34)ccc21
Out: 48.2 µM

In: Look up and report TGI, with SR leukemia as system, for CCN1[C@@H](C(=O)NC23CCC(C(=O)O)(CC2)CC3)[C@H](c2cccc(Cl)c2F)[C@]2(C(=O)Nc3cc(Cl)ccc32)C12CCCCC2
Out: 4.72 µM

In: Given COc1ccc(O)c(C(=O)CCC(=O)O)c1 , report its TGI on SR leukemia.
Out: > 100 µM

In: Answer with TGI of CCC1=CCN(c2cc(C)ccn2)OC1c1ccccc1 (stereo unspecified) measured for SR leukemia.
Out: 55.7 µM

In: Give TGI for CC1(C)CC(=O)c2c(nc3c(ccc4ccccc43)c2-c2ccc(NC(=O)CCC(=O)Nc3ccc(-c4c5c(nc6c4ccc4ccccc46)CC(C)(C)CC5=O)cc3)cc2)C1 tested on SR leukemia.
Out: > 100 µM

In: Given CCOP(=O)(OCC)/C(C#N)=C/c1ccccn1 , report its TGI on SR leukemia.
Out: > 100 µM

In: Output reported TGI of the compound COC/N=C(\NC#N)NCOC on SR leukemia.
Out: 54.6 µM

* * *

Tested on: HL-60(TB) leukemia
Experiment: NCI tumour cell line growth inhibition, 48 h
Classification field: enter Condition met for TGI values not below 20 µM, Condition not met for values below it.

The following compounds have reported results that may help.
O=C1/C(=C\c2ccc(Br)cc2)CCCc2ccccc21 = Condition met
Cc1ccc(Cl)cc1N=NC(=O)NNc1cc(Cl)ccc1C = Condition met
N#Cc1c(=O)c2ccccc2n2ccccc12 = Condition met
COc1cc(C(=O)Oc2c(C(C)=O)sc3c2c(=O)n(-c2ccccc2)c(=S)n3-c2ccccc2)cc(OC)c1OC = Condition met
C/C(=N\NC(=S)N1CCC(N2CCCCC2)CC1)c1ccccn1 = Condition met
COc1cccc2c1C(=O)c1c(O)c3c(c(O)c1C2=O)C[C@@](O)(C(=O)COC(=O)c1ccccc1)C[C@@H]3OC1CC(N)C(O)C(C)O1 (some centres not stated) = Condition not met
O=c1[nH]c(SCc2cccc([N+](=O)[O-])c2)nc2nc[nH]c12 = Condition met
C/C(=N\NC(=O)c1ccc(Cl)cc1)c1nc2ncccc2[nH]1 = Condition met

In: Exam item: decide whether the reported TGI for CC1CC2(S(=O)(=O)c3ccccc3)ON1CC2S(=O)(=O)c1ccccc1 (configuration not stated) is at least 20 µM.
Out: Condition met

In: Is TGI at least 20 µM? Consider O=Cc1ccc(OC[C@H]2COC(=O)N2)cc1
Out: Condition met

In: Decide: is the reported value of TGI for O=c1cc(-c2ccccc2)[nH]c2cc(F)cc(F)c12 equal to or greater than 20 µM?
Out: Condition met

In: Does CCOC(=O)NC(Nc1cc(Cl)ccc1OC)(C(F)(F)F)C(F)(F)F have a reported TGI of at least 20 µM?
Out: Condition met

In: Kindly determine if TGI recorded for O=C1c2cccnc2-c2nc(-c3cccnc3)cc3c2c1nc1ccccc13 is above or exactly 20 µM.
Out: Condition met

In: hey, is TGI for this one >= 20 µM? OC1=CN=COc2ccccc21
Out: Condition met

In: For this compound, is measured TGI 20 µM or higher? O=C(O)c1nc2ccc(C(F)(F)F)cc2nc1Nc1ccc(Cl)c(Cl)c1
Out: Condition met

In: Reported TGI reaches at least 20 µM for O=C1NC(Nc2ccccc2)=N/C1=C\c1c(Cl)cccc1Cl ?
Out: Condition met

In: Confirm if TGI reported for the compound CCOP(=O)(OCC)/C(C#N)=C/c1ccccn1 is 20 µM or above.
Out: Condition met

In: Does TGI meet or surpass 20 µM for CC1=Nc2ccccc2SC(c2c(Cl)cccc2Cl)C1 (configuration not stated) ?
Out: Condition not met
